molecular target: T1, monoclonal antibody 3C4; experiment: SPR, phagemid bound to 3C4 after 1 uM holoTC (competitor)
T1 construct: also called mAb 3C4; 3C4 (3CY)
T1 sequence (VH, as listed by the source, chain 1 of 2): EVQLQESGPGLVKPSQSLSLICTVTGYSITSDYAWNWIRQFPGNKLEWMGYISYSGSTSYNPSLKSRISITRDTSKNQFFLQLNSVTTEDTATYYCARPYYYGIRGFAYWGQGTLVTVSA
T1 sequence (VL, as listed by the source, chain 2 of 2): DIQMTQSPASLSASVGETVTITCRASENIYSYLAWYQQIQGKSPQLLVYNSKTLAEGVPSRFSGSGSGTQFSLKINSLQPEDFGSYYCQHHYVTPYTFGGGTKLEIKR
Positions of bridges follow the written chain, without caps; N, C: chain ends. No end group written: not given here.
QUANTITY_KIND: Block by holoTC (RU)

BINDER: CSGLYPWDMFRCS (disulfide 1-12 (inferred); also: displayed on phage (phagemid)) [phagemid CS1-9p (phage-displayed disulfide cyclized 13 mer peptide)]
QUANTITY_KIND: Block by holoTC (RU)
RESULT: 1 RU

BINDER: CSFRYLWDQDRCS (disulfide 1-12 (inferred); also: displayed on phage (phagemid)) [phagemid CS1-6p (phage-displayed disulfide cyclized 13 mer peptide)]
QUANTITY_KIND: Block by holoTC (RU)
RESULT: 3 RU

BINDER: CSFFYSLCYCWCS (disulfide (positions not given here); also: four Cys, disulfide pairing not given here, also called CSI-31p) [phagemid CS1-31p (phage-displayed disulfide cyclized 13 mer peptide)]
QUANTITY_KIND: Block by holoTC (RU)
RESULT: 5 RU

BINDER: CSGLYPWDYFMCS (disulfide 1-12 (inferred); also: displayed on phage (phagemid)) [phagemid CS1-29p (phage-displayed disulfide cyclized 13 mer peptide)]
QUANTITY_KIND: Block by holoTC (RU)
RESULT: 3 RU

BINDER: CSFRYQWDMFRCS (disulfide 1-12 (inferred); also: displayed on phage (phagemid)) [phagemid CS1-11p (phage-displayed disulfide cyclized 13 mer peptide)]
QUANTITY_KIND: Block by holoTC (RU)
RESULT: 0 RU
